experiment: Single dose 300 mg / 450 mg pharmacokinetic, safety and tolerability study in healthy male and female subjects; conditions: male, human, plasma, po, 450 mg
parameter-measured: Tmax (h)
Numbers only; they are read as h.

Entry "Clc1ccc([C@]23CNC[C@H]2C3)cc1Cl" has what Tmax?
1.85

Repeat with O=C1NCC2(c3ccc(Cl)c(Cl)c3)CC12 (centres unmarked)
9.2

---

Test: Rat developmental toxicity study with toxicokinetics
Format: in vivo
Settings: female, Crl:CD(SD)IGS BR, rat, in vivo, po, 3 mg/kg/day, pregnant rats, 3 mg/kg/day, GD 6
From the text: For the toxicology assessment, there were twenty-five mated females/group. Females that delivered early were necropsied on the day of delivery. […] The fetuses were weighed, sexed, and examined for external, visceral, and skeletal malformations and developmental variations.
parameter-measured: Cmax (ng/mL)
Numbers only; they are read as ng/mL.

Entry "Clc1ccc([C@]23CNC[C@H]2C3)cc1Cl" has what Cmax?
387
